- Test target: Antibody from Mannich Immunogen
- Run description: RIA cross-reactivity: competition with labeled physostigmine for antibody from Mannich immunogen
- Assay type: binding, New Zealand white rabbits
- Condition: 1:100, max 1000 ng tested
Measured quantity: IC50 (50% inhibition of binding of 3H-physostigmine) (ng)
Return type: number; implicit unit ng.

Molecule | Test target | Observed value
CN1CC[C@@]2(C)C3=CC(=O)C(=O)C=C3N(C)[C@@H]12 [Rubreserine] | Antibody from Mannich Immunogen | 248
CN1CC[C@@]2(C)c3cc(O)ccc3N(C)[C@@H]12 [Eseroline, eseroline] | Antibody from Mannich Immunogen | 200
CNC(=O)Oc1ccc2c(c1)[C@]1(C)CCN(C)[C@@H]1N2C [Physostigmine, physostigmine] | Antibody from Mannich Immunogen | 1.35

Now for the molecule whose IC50 (50% inhibition of binding of 3H-physostigmine) we want.
Prompt: # input molecule: CN1CCC2(C)c3cc4nc5c(=O)c6c(cc-5oc4cc3N(C)C12)N(C)C1N(C)CCC61C (stereo not shown) [Eserine blue] ; wanted: its IC50 (50% inhibition of binding of 3H-physostigmine)
Response: 575
